# System: MDA-MB-231 multicell spheroids, viability (%T/C)
# measurement-protocol: Anticancer human tumor MDA-MB-231 cell line growth inhibition [IpAb]
# experimental-conditions: second compound 1 µM; first compound 0.0949 µM; hits give low values
result-type: viability, T/C (%)
Numeric only. Scale: %

Previously resolved entries follow.
>>> recorded_number("Cn1cnc2c(F)c(Nc3ccc(Br)cc3Cl)c(C(=O)NOCCO)cc21 + CC(C)NCC(C(=O)N1CCN(c2ncnc3c2C(C)CC3O)CC1)c1ccc(Cl)cc1")
24.8
>>> recorded_number("CC(=O)c1c(C)c2cnc(Nc3ccc(N4CCNCC4)cn3)nc2n(C2CCCC2)c1=O + CCN1CCN(Cc2ccc(Nc3ncc(F)c(-c4cc(F)c5nc(C)n(C(C)C)c5c4)n3)nc2)CC1")
52.8

viability, T/C reading for CC(C)(C)c1cnc(CSc2cnc(NC(=O)C3CCNCC3)s2)o1 + CC(C)NCC(C(=O)N1CCN(c2ncnc3c2C(C)CC3O)CC1)c1ccc(Cl)cc1 : 74.4

###

# System: MDA-MB-231 multicell spheroids, viability (%T/C)
# measurement-protocol: Anticancer human tumor MDA-MB-231 cell line growth inhibition [IpAb]
# experimental-conditions: second compound 0.0316 µM; first compound 0.316 µM; hits give low values
result-type: viability, T/C (%)
Numeric only. Scale: %

>>> recorded_number("COc1c(OCCCN2CCOCC2)ccc2c3n(c(=NC(=O)c4cnc(N)nc4)nc12)CCN3 + CCN1CCN(Cc2ccc(Nc3ncc(F)c(-c4cc(F)c5nc(C)n(C(C)C)c5c4)n3)nc2)CC1")
29.7
>>> recorded_number("C=CC(=O)N1CCN(c2nc(=O)n(-c3c(C)ccnc3C(C)C)c3nc(-c4c(O)cccc4F)c(F)cc23)C(C)C1 (stereo not drawn) + CCN1CCN(Cc2ccc(Nc3ncc(F)c(-c4cc(F)c5nc(C)n(C(C)C)c5c4)n3)nc2)CC1")
89.9
>>> recorded_number("Cn1nccc1Nc1nccc(-c2ccn(C(CO)c3ccc(Cl)c(F)c3)c(=O)c2)n1 (stereo not drawn) + CCN1CCN(Cc2ccc(Nc3ncc(F)c(-c4cc(F)c5nc(C)n(C(C)C)c5c4)n3)nc2)CC1")
35.6
>>> recorded_number("CC1(C)CCC(CN2CCN(c3ccc(C(=O)NS(=O)(=O)c4ccc(NCC5CCOCC5)c([N+](=O)[O-])c4)c(Oc4cnc5[nH]ccc5c4)c3)CC2)=C(c2ccc(Cl)cc2)C1 + CCN1CCN(Cc2ccc(Nc3ncc(F)c(-c4cc(F)c5nc(C)n(C(C)C)c5c4)n3)nc2)CC1")
82.2
>>> recorded_number("C=CCn1c(=O)c2cnc(Nc3ccc(N4CCN(C)CC4)cc3)nc2n1-c1cccc(C(C)(C)O)n1 + CCN1CCN(Cc2ccc(Nc3ncc(F)c(-c4cc(F)c5nc(C)n(C(C)C)c5c4)n3)nc2)CC1")
38.9

viability, T/C reading for CCCS(=O)(=O)Nc1ccc(F)c(C(=O)c2c[nH]c3ncc(-c4ccc(Cl)cc4)cc23)c1F + CCN1CCN(Cc2ccc(Nc3ncc(F)c(-c4cc(F)c5nc(C)n(C(C)C)c5c4)n3)nc2)CC1 : 86.4

viability, T/C reading for Cc1nc(NC(=O)N2CCCC2C(N)=O)sc1-c1ccnc(C(C)(C)C(F)(F)F)c1 (stereo not drawn) + CCN1CCN(Cc2ccc(Nc3ncc(F)c(-c4cc(F)c5nc(C)n(C(C)C)c5c4)n3)nc2)CC1 : 46.6

viability, T/C reading for Cn1ncc(Cl)c1-c1cc(C(=O)NC(CN)Cc2cccc(F)c2)sc1Cl (stereo not drawn) + CCN1CCN(Cc2ccc(Nc3ncc(F)c(-c4cc(F)c5nc(C)n(C(C)C)c5c4)n3)nc2)CC1 : 51.9

###

# Tested on: MDA-MB-231 multicell spheroids, viability (%T/C)
# measurement-protocol: Anticancer human tumor MDA-MB-231 cell line growth inhibition [IpAb];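 further: viability read after seven days of drug exposure; 100% = DMSO vehicle control viability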
# experimental-conditions: second compound 0.316 µM; first compound 0.01 µM; hits give low values
In plain terms, low viability, T/C, meaning strictly below 60%, gives satisfied, and everything else gives not satisfied.

Would you please look over these solved cases?
>>> cat("COc1c(OCCCN2CCOCC2)ccc2c3n(c(=NC(=O)c4cnc(N)nc4)nc12)CCN3 + CCN1CCN(Cc2ccc(Nc3ncc(F)c(-c4cc(F)c5nc(C)n(C(C)C)c5c4)n3)nc2)CC1")
"satisfied"
>>> cat("Cn1ncnc1[C@H]1c2n[nH]c(=O)c3cc(F)cc(c23)N[C@@H]1c1ccc(F)cc1 + CC(C)NCC(C(=O)N1CCN(c2ncnc3c2C(C)CC3O)CC1)c1ccc(Cl)cc1")
"not satisfied"
>>> cat("CC(C)n1nc(-c2ccc3oc(N)nc3c2)c2c(N)ncnc21 + CC(C)NCC(C(=O)N1CCN(c2ncnc3c2C(C)CC3O)CC1)c1ccc(Cl)cc1")
"satisfied"
>>> cat("Cn1ncnc1[C@H]1c2n[nH]c(=O)c3cc(F)cc(c23)N[C@@H]1c1ccc(F)cc1 + CCN1CCN(Cc2ccc(Nc3ncc(F)c(-c4cc(F)c5nc(C)n(C(C)C)c5c4)n3)nc2)CC1")
"satisfied"

// next entry
Below 60% on viability, T/C? Entry CC(C)n1nc(-c2ccc3oc(N)nc3c2)c2c(N)ncnc21 + CCN1CCN(Cc2ccc(Nc3ncc(F)c(-c4cc(F)c5nc(C)n(C(C)C)c5c4)n3)nc2)CC1
satisfied

###

# System: MDA-MB-231 multicell spheroids, viability (%T/C)
# measurement-protocol: Anticancer human tumor MDA-MB-231 cell line growth inhibition [IpAb];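 further: viability read after seven days of drug exposure; 100% = DMSO vehicle control viability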
# experimental-conditions: second compound 0.316 µM; first compound 10 µM; hits give low values
In plain terms, low viability, T/C, meaning strictly below 40%, gives MET, and everything else gives NOT MET.

>>> cat("C=CC(=O)N1CCN(c2nc(=O)n(-c3c(C)ccnc3C(C)C)c3nc(-c4c(O)cccc4F)c(F)cc23)C(C)C1 (stereo not given) + CCN1CCN(Cc2ccc(Nc3ncc(F)c(-c4cc(F)c5nc(C)n(C(C)C)c5c4)n3)nc2)CC1")
"NOT MET"
>>> cat("Cn1ncc(Cl)c1-c1cc(C(=O)NC(CN)Cc2cccc(F)c2)sc1Cl (stereo not given) + CC(C)NCC(C(=O)N1CCN(c2ncnc3c2C(C)CC3O)CC1)c1ccc(Cl)cc1")
"MET"
>>> cat("C=CCn1c(=O)c2cnc(Nc3ccc(N4CCN(C)CC4)cc3)nc2n1-c1cccc(C(C)(C)O)n1 + CC(C)NCC(C(=O)N1CCN(c2ncnc3c2C(C)CC3O)CC1)c1ccc(Cl)cc1")
"MET"

// next entry
Below 40% on viability, T/C? Entry C=CC(=O)N1CCN(c2nc(=O)n(-c3c(C)ccnc3C(C)C)c3nc(-c4c(O)cccc4F)c(F)cc23)C(C)C1 (stereo not given) + CC(C)NCC(C(=O)N1CCN(c2ncnc3c2C(C)CC3O)CC1)c1ccc(Cl)cc1
NOT MET

###

# Tested on: MDA-MB-231 multicell spheroids, viability (%T/C)
# measurement-protocol: Anticancer human tumor MDA-MB-231 cell line growth inhibition [IpAb];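 further: viability read after seven days of drug exposure; 100% = DMSO vehicle control viability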
# experimental-conditions: second compound 1 µM; first compound 0.03 µM; hits give low values
result-type: viability, T/C

>>> result("CC(=O)c1c(C)c2cnc(Nc3ccc(N4CCNCC4)cn3)nc2n(C2CCCC2)c1=O + CC(C)NCC(C(=O)N1CCN(c2ncnc3c2C(C)CC3O)CC1)c1ccc(Cl)cc1")
"36%"
>>> result("CC(C)(C)c1cnc(CSc2cnc(NC(=O)C3CCNCC3)s2)o1 + CC(C)NCC(C(=O)N1CCN(c2ncnc3c2C(C)CC3O)CC1)c1ccc(Cl)cc1")
"84.8%"
>>> result("Cn1cnc2c(F)c(Nc3ccc(Br)cc3Cl)c(C(=O)NOCCO)cc21 + CCN1CCN(Cc2ccc(Nc3ncc(F)c(-c4cc(F)c5nc(C)n(C(C)C)c5c4)n3)nc2)CC1")
"25.3%"
>>> result("Cn1cnc2c(F)c(Nc3ccc(Br)cc3Cl)c(C(=O)NOCCO)cc21 + CC(C)NCC(C(=O)N1CCN(c2ncnc3c2C(C)CC3O)CC1)c1ccc(Cl)cc1")
"28.2%"
>>> result("CC(=O)c1c(C)c2cnc(Nc3ccc(N4CCNCC4)cn3)nc2n(C2CCCC2)c1=O + CCN1CCN(Cc2ccc(Nc3ncc(F)c(-c4cc(F)c5nc(C)n(C(C)C)c5c4)n3)nc2)CC1")
"53.4%"

Note: attention shifts to another entry.
Item CC(C)(C)c1cnc(CSc2cnc(NC(=O)C3CCNCC3)s2)o1 + CCN1CCN(Cc2ccc(Nc3ncc(F)c(-c4cc(F)c5nc(C)n(C(C)C)c5c4)n3)nc2)CC1 was tested on MDA-MB-231 multicell spheroids, viability (%T/C); the reported viability, T/C is 53.4%

###

Below is a list of entries, each paired with its recorded viability, T/C value.
# Test system: MDA-MB-231 multicell spheroids, viability (%T/C)
# measurement-protocol: Anticancer human tumor MDA-MB-231 cell line growth inhibition [IpAb];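 further: viability read after seven days of drug exposure; 100% = DMSO vehicle control viability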
# experimental-conditions: second compound 0.316 µM; first compound 0.00949 µM; hits give low values
Numeric only. Scale: %

Previously resolved entries follow.
>>> recorded_number("CC(=O)c1c(C)c2cnc(Nc3ccc(N4CCNCC4)cn3)nc2n(C2CCCC2)c1=O + CC(C)NCC(C(=O)N1CCN(c2ncnc3c2C(C)CC3O)CC1)c1ccc(Cl)cc1")
58.9
>>> recorded_number("CC(C)(C)c1cnc(CSc2cnc(NC(=O)C3CCNCC3)s2)o1 + CC(C)NCC(C(=O)N1CCN(c2ncnc3c2C(C)CC3O)CC1)c1ccc(Cl)cc1")
94.5

Note: attention shifts to another entry.
viability, T/C reading for CC(C)(C)c1cnc(CSc2cnc(NC(=O)C3CCNCC3)s2)o1 + CCN1CCN(Cc2ccc(Nc3ncc(F)c(-c4cc(F)c5nc(C)n(C(C)C)c5c4)n3)nc2)CC1 : 47.4

Source: PubChem BioAssay AID2060328
